src = patent US10487071B2

- experimental-details: Gravimetry (weight loss), corrosion inhibition
- assay-setup: 2 ppm; mild steel in 1N HCl
Would you kindly list IE % for each of these compounds?
Note: state the figure and append the unit.

[
  {
    "mol-smiles": "CN(C)CCOc1ccc(CCn2cc(-c3cccc(-c4cn(CCc5ccc(OCCN(C)C)c(Br)c5)nn4)c3)nn2)cc1Br",
    "IE %": "97.10%"
  },
  {
    "mol-smiles": "CN(C)CCOc1ccc(CCn2cc(CCCCc3cn(CCc4ccc(OCCN(C)C)c(Br)c4)nn3)nn2)cc1Br",
    "IE %": "95.63%"
  },
  {
    "mol-smiles": "CN(C)CCCOc1ccc(CCn2cc(-c3ccc(-c4cn(CCc5ccc(OCCCN(C)C)c(I)c5)nn4)cc3)nn2)cc1I",
    "IE %": "96.05%"
  }
]

Asked: Output IE % of CN(C)CCCOc1ccc(-n2cc(-c3ccc(-c4cn(-c5ccc(OCCCN(C)C)c(Br)c5)nn4)cc3)nn2)cc1Br
Given back: 95.16%

* * *

Would you kindly list activity at 200 µM for each of these compounds?
- System: Polaribacter sp. (TC5)
- experimental-details: Anti-adhesion test, strain TC5
- Type: cell-based
- assay-setup: 15 h, 200 μM
- Protocol: Bacterial strains were grown on Väätänen nine-salts solution (VNSS). When the stationary phase was reached, the bacterial suspension was centrifuged. […] After incubation during an optimized adhesion time (moderately 15 h), non-adhered bacteria were eliminated and adhered cells were quantified after SYTO 61 (1 μM) staining. A percentage of inhibition was calculated per well. […] EC50 values were then calculated for each compound. […]
Answers are plain numbers, in %.

Reference set, count: 6
[
  {
    "mol-smiles": "COc1ccc(Cn2cc(-c3ccc(-c4cn(Cc5ccc(OC)c(Br)c5)nn4)cc3)nn2)cc1Br",
    "experimental-target": "Polaribacter sp. (TC5)",
    "recorded-measurement": 38.3
  },
  {
    "mol-smiles": "CN(C)CCOc1ccc(CCn2cc(-c3ccc(-c4cn(CCc5ccc(OCCN(C)C)c(Br)c5)nn4)cc3)nn2)cc1Br",
    "experimental-target": "Polaribacter sp. (TC5)",
    "recorded-measurement": 21.5
  },
  {
    "mol-smiles": "CN(C)CCOc1c(Br)cc(CCn2cc(-c3ccc(-c4cn(CCc5cc(Br)c(OCCN(C)C)c(Br)c5)nn4)cc3)nn2)cc1Br",
    "experimental-target": "Polaribacter sp. (TC5)",
    "recorded-measurement": 0.7
  },
  {
    "mol-smiles": "CN(C)CCOc1ccc(-n2cc(-c3ccc(-c4cn(-c5ccc(OCCN(C)C)cc5)nn4)cc3)nn2)cc1",
    "experimental-target": "Polaribacter sp. (TC5)",
    "recorded-measurement": 89.4
  },
  {
    "mol-smiles": "CN(C)CCCOc1ccc(CCn2cc(-c3ccc(-c4cn(CCc5ccc(OCCCN(C)C)c(I)c5)nn4)cc3)nn2)cc1I",
    "experimental-target": "Polaribacter sp. (TC5)",
    "recorded-measurement": 22.4
  },
  {
    "mol-smiles": "CN(C)CCCOc1ccc(CCn2cc(-c3ccc(-c4cn(CCc5ccc(OCCCN(C)C)c(Br)c5)nn4)cc3)nn2)cc1Br",
    "experimental-target": "Polaribacter sp. (TC5)",
    "recorded-measurement": 12.7
  }
]

Asked: Output activity at 200 µM of CN(C)CCOc1ccc(CCn2cc(-c3ccc(-c4cn(CCc5ccc(OCCN(C)C)c(Cl)c5)nn4)cc3)nn2)cc1Cl
Given back: 37.3

* * *

- Test system: Shewanella sp. (TC11)
- experimental-details: Toxicity test, strain TC11
- Format: cell-based
value-kind: IS: LC50/EC50 (selectivity index), TC11
Answers are plain numbers.

Reference set, count: 4
[
  {
    "mol-smiles": "CN(C)CCCOc1c(Br)cc(CCn2cc(-c3ccc(-c4cn(CCc5cc(Br)c(OCCCN(C)C)c(Br)c5)nn4)cc3)nn2)cc1Br",
    "value-kind": "IS: LC50/EC50 (selectivity index), TC11",
    "recorded-measurement": 4.3
  },
  {
    "mol-smiles": "Oc1ccc(CCn2cc(-c3ccc(-c4cn(CCc5ccc(O)c(I)c5)nn4)cc3)nn2)cc1I",
    "value-kind": "IS: LC50/EC50 (selectivity index), TC11",
    "recorded-measurement": 80.4
  },
  {
    "mol-smiles": "CN(C)CCOc1c(Br)cc(CCn2cc(-c3ccc(-c4cn(CCc5cc(Br)c(OCCN(C)C)c(Br)c5)nn4)cc3)nn2)cc1Br",
    "value-kind": "IS: LC50/EC50 (selectivity index), TC11",
    "recorded-measurement": 4.2
  },
  {
    "mol-smiles": "CN(C)CCCOc1ccc(CCn2cc(-c3ccc(-c4cn(CCc5ccc(OCCCN(C)C)c(Br)c5)nn4)cc3)nn2)cc1Br",
    "value-kind": "IS: LC50/EC50 (selectivity index), TC11",
    "recorded-measurement": 18.9
  }
]

Please look at the following molecule next.
Asked: Output IS: LC50/EC50 (selectivity index), TC11 of CN(C)CCOc1ccc(CCn2cc(-c3ccc(-c4cn(CCc5ccc(OCCN(C)C)c(Br)c5)nn4)cc3)nn2)cc1Br
Given back: 26.5

* * *

- Test system: Polaribacter sp. (TC5)
- experimental-details: Anti-adhesion test, strain TC5
- Format: cell-based
- assay-setup: read-out: EC50 (effective concentration to inhibit 50% of the adhesion)
- Description: Bacterial strains were grown on Väätänen nine-salts solution (VNSS). When the stationary phase was reached, the bacterial suspension was centrifuged. […] After incubation during an optimized adhesion time (moderately 15 h), non-adhered bacteria were eliminated and adhered cells were quantified after SYTO 61 (1 μM) staining. A percentage of inhibition was calculated per well. […] EC50 values were then calculated for each compound. […]
Binary label based on EC50 with cut-off 60 µM: below gives 1.0, not below gives 0.0.

Here are 4 molecules together with their reported answers.
[
  {
    "molecule": "CN(C)CCCOc1c(Br)cc(CCn2cc(-c3ccc(-c4cn(CCc5cc(Br)c(OCCCN(C)C)c(Br)c5)nn4)cc3)nn2)cc1Br [SA34]",
    "group-label": 1.0
  },
  {
    "molecule": "CN(C)CCOc1ccc(CCn2cc(-c3ccc(-c4cn(CCc5ccc(OCCN(C)C)c(Br)c5)nn4)cc3)nn2)cc1Br [AS162]",
    "group-label": 1.0
  },
  {
    "molecule": "CN(C)CCOc1ccc(CCn2cc(-c3ccc(-c4cn(CCc5ccc(OCCN(C)C)c(I)c5)nn4)cc3)nn2)cc1I [SA45]",
    "group-label": 0.0
  },
  {
    "molecule": "CN(C)CCOc1c(Br)cc(CCn2cc(-c3ccc(-c4cn(CCc5cc(Br)c(OCCN(C)C)c(Br)c5)nn4)cc3)nn2)cc1Br [SA33]",
    "group-label": 1.0
  }
]

Asked: For COc1ccc(Cn2cc(-c3ccc(-c4cn(Cc5ccc(OC)c(Br)c5)nn4)cc3)nn2)cc1Br [SA8] , is the recorded EC50 below the cut-off of 60 µM?
Given back: 0.0

Asked: For CN(C)CCCOc1ccc(CCn2cc(-c3ccc(-c4cn(CCc5ccc(OCCCN(C)C)c(Br)c5)nn4)cc3)nn2)cc1Br [AS172] , is the recorded EC50 below the cut-off of 60 µM?
Given back: 1.0

Asked: For Oc1ccc(CCn2cc(-c3ccc(-c4cn(CCc5ccc(O)c(I)c5)nn4)cc3)nn2)cc1I [SA43] , is the recorded EC50 below the cut-off of 60 µM?
Given back: 1.0

* * *

Would you kindly list LC50 (necessary concentration to kill 50% of the bacteria), TC14 for each of these molecules?
- Test system: Pseudoalteromonas ulvae (TC14)
- experimental-details: Toxicity test, strain TC14
- Type: cell-based
One number for each entry, in µM.

[
  {
    "mol-smiles": "CN(C)CCOc1c(Br)cc(CCn2cc(-c3ccc(-c4cn(CCc5cc(Br)c(OCCN(C)C)c(Br)c5)nn4)cc3)nn2)cc1Br",
    "recorded-measurement": 254.1
  },
  {
    "mol-smiles": "CN(C)CCCOc1ccc(CCn2cc(-c3ccc(-c4cn(CCc5ccc(OCCCN(C)C)c(Br)c5)nn4)cc3)nn2)cc1Br",
    "recorded-measurement": 224.7
  },
  {
    "mol-smiles": "CN(C)CCOc1ccc(CCn2cc(-c3ccc(-c4cn(CCc5ccc(OCCN(C)C)c(Br)c5)nn4)cc3)nn2)cc1Br",
    "recorded-measurement": 257.7
  },
  {
    "mol-smiles": "CN(C)CCCOc1c(Br)cc(CCn2cc(-c3ccc(-c4cn(CCc5cc(Br)c(OCCCN(C)C)c(Br)c5)nn4)cc3)nn2)cc1Br",
    "recorded-measurement": 132
  }
]

Asked: Output LC50 (necessary concentration to kill 50% of the bacteria), TC14 of Oc1ccc(CCn2cc(-c3ccc(-c4cn(CCc5ccc(O)c(I)c5)nn4)cc3)nn2)cc1I
Given back: 236.9
